B1: LINE1-full (parent)
chain: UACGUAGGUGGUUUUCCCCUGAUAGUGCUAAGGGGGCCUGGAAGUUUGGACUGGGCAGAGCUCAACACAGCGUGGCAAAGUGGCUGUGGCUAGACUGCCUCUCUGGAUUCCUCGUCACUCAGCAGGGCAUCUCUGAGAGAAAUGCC

Variants of: B1
Experiment: self-cleavage, relative activity (ratio to wild type); higher = more cleavage; in vitro, sequencing; the parent is a self-cleaving ribozyme
Quick list: self-cleavage per entry.

Some solved entries appear below for comparison.
{"Variant Id": "C3U U46C", "self-cleavage": 0.92}
{"Variant Id": "A42C", "self-cleavage": 0.92}

Next:
What measured self-cleavage goes with U20C C123U ?
0.91
